Value source: patent US20210246204A1

# tested.on: human Siglec-7 on primary human monocyte-derived dendritic cells (human, UniProt Q9Y286 19-467)
# Sequence (Q9Y286 19-467): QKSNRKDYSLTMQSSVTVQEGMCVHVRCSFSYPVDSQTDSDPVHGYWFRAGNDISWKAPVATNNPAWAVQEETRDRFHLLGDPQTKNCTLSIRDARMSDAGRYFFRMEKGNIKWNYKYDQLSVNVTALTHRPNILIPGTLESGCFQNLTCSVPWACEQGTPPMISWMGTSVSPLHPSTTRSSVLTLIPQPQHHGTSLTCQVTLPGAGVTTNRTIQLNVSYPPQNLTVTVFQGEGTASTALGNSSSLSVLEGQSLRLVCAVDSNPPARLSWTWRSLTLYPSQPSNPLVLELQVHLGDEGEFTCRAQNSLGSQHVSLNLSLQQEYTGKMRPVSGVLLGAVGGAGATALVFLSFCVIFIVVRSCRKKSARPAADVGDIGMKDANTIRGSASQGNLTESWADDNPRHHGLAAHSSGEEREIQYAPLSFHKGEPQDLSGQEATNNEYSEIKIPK
# protocol.notes: cell-based or functional assay
metric: Fold increase in potency compared to Chimeric Ab (fold)
Report the figure in fold without appending any unit label.

>>> result("S7AB-H8.2 (antibody, V domains shown) VH: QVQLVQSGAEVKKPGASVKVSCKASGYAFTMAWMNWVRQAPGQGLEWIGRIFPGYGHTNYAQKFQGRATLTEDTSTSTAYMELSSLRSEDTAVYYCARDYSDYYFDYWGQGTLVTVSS VL: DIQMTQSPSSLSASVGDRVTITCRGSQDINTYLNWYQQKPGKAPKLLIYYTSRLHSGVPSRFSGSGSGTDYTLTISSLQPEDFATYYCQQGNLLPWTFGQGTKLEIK")
11.8

Moving on to the next binder.
Reported Fold increase in potency compared to Chimeric Ab for S7AB-H8.10.1 (antibody, V domains shown) VH: QVQLVQSGAEVKKPGASVKVSCKASGYAFTEAWMNWVRQAPGQRLEWIGRIFPGYGHTNYAQKFQGRATLTEDTSTSTAYMELSSLRSEDTAVYYCARDYSDYYFDYWGQGTLVTVSS VL: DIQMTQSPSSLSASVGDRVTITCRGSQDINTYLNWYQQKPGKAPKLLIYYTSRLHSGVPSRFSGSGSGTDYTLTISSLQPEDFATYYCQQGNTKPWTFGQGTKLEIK was 7
